Answer each item with its documented TGI.
- System: OVCAR-5 ovarian
- assay: NCI tumour cell line growth inhibition, 48 h

Example entries begin here.
- compound: "Cc1nc(-n2nc(-c3ccccc3)cc2-c2ccccc2)sc1C(/C=C\\c1ccc([N+](=O)[O-])cc1)=N/NC(=S)NN"
  TGI: "> 65.4 µM"
- compound: "Cc1ccc(C2=C(c3ccccc3)C(O)(c3ccccc3)C(c3ccccc3)=C2c2ccc(C)cc2)cc1"
  TGI: "> 100 µM"

Could I get TGI for every one of these entries?
1. S=C1NC(c2ccccc2)NC(c2ccccc2)S1 (centres undefined)
2. Nc1nc(Cl)cc(Oc2ccc(Cl)cc2)n1

## Output
> 100 µM
> 100 µM
